Value source: paper PMC4857087

Measurement target: HDAC2 (Homo sapiens, UniProt Q92769)
Sequence (Q92769 whole entry): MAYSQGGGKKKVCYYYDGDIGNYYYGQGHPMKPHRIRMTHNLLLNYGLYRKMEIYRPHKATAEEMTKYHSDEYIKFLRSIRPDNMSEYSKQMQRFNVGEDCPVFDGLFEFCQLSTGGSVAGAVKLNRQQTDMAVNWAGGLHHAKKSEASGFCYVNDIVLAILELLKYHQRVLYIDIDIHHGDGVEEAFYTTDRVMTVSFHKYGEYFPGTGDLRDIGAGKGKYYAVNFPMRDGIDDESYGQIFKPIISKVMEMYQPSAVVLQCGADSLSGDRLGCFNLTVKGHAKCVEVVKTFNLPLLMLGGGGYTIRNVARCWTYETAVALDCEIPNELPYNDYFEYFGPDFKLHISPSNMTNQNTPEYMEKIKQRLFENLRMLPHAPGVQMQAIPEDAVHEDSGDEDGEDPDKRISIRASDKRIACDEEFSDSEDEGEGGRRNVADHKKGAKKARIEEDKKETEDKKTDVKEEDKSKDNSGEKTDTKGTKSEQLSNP
Assay metric: Kd (µM)
Record the value in µM, omitting the unit from your answer.

Challenge: Reported Kd for `CC1(C)[C@@H](O)CC[C@]2(C)[C@H]3C(=O)C=C4[C@@H]5C[C@@](C)(C(=O)O)CC[C@]5(C)CC[C@@]4(C)[C@]3(C)CC[C@@H]12` : what is it?
Response given: 0.613
